# STUDY SYSTEM: DC-SIGN ECD (Homo sapiens)
# Construct: DC-SIGN extracellular domain (ECD); made in house; host or cells: E. coli BL21(DE3), pET30b; gene from GenScript
# Sequence (Q9NNX6 59-404 limits assumed): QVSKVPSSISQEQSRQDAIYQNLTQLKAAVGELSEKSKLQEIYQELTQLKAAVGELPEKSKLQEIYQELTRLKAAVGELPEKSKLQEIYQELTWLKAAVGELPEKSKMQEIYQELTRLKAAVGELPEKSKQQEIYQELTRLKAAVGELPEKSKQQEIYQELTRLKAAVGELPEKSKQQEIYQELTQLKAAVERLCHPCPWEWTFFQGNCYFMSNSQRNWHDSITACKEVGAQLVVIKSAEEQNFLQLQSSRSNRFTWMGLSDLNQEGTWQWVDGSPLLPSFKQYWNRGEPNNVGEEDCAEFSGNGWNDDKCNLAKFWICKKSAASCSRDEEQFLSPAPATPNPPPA
# ASSAY OVERVIEW: KD determination from 19F NMR CSPs
# Format: binding
# CONDITION SUMMARY: direct observation of CF3 chemical shift; read-out: KD (19F CSP)
ENDPOINT LABEL: pKd
// pKd here means minus log10 of the molar concentration (mol/L)

Problem: Hello, please tell me recorded pKd for this one: NC[C@H]1O[C@H](Oc2ccc(-c3ccc(C(=O)O)cc3)cc2C(F)(F)F)[C@@H](O)[C@@H](O)[C@@H]1O [compound 48]
Solution: 3.43
